Entry source: patent US7615643B2

Reported values of IC50 for individual entries
# target under test: PLK1 (Homo sapiens, UniProt P53350)
# Construct: PLK kinase domain (amino acids 21-346 preceded by MKKGHHHHHHD); made in house; host or cells: baculovirus infected T. ni cells
# Sequence (P53350 21-346): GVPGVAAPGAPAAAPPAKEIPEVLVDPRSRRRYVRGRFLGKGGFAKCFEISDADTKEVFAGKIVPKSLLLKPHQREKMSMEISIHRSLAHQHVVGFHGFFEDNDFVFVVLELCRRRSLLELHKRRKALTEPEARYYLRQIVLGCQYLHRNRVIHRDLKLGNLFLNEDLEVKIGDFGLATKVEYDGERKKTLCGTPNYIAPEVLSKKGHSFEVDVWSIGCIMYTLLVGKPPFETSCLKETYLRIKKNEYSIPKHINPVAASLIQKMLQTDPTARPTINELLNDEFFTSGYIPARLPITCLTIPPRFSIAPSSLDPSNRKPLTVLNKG
# procedure summary: Assay for inhibition of PLK1 (SPA kinase assay)
# Type: biochemical
# condition context: 1 μM ATP, 2 nM PLK1 kinase domain, read-out: PLK1 pIC50 (converted)

COc1cc2ncn(-c3cc(O[C@H](C)c4cccc(OCC5CCNCC5)c4Cl)c(C(N)=O)s3)c2cc1OC [Example 40] | < 100 nM
C[C@@H](Oc1cc(-n2cnc3ccccc32)sc1C(N)=O)c1cccc(OCCN2CCN(C)CC2)c1Cl [Example 17] | < 100 nM
CC(C)N1CCC(Oc2cccc([C@@H](C)Oc3cc(-n4cnc5cc(Cl)ccc54)sc3C(N)=O)c2Cl)CC1 [Example 24] | < 100 nM
Cc1ccc(-c2ccc3c(c2)ncn3-c2cc(O[C@H](C)c3cccc(OC4CCN(C)CC4)c3Cl)c(C(N)=O)s2)cn1 [Example 10] | < 100 nM
C[C@@H](Oc1cc(-n2cnc3cc(Cl)ccc32)sc1C(N)=O)c1cccc(OC2CCN(CCF)CC2)c1Cl [Example 21] | < 100 nM
Cc1nnc(-c2ccc3c(c2)ncn3-c2cc(O[C@H](C)c3cccc(OC4CCNCC4)c3Cl)c(C(N)=O)s2)o1 [Example 87] | < 100 nM
COc1cc2ncn(-c3cc(O[C@H](C)c4cccc(NCC5CCN(C)CC5)c4Cl)c(C(N)=O)s3)c2cc1OC [Example 2] | < 100 nM
C[C@@H](Oc1cc(-n2cnc3cc(-c4cccnc4)ccc32)sc1C(N)=O)c1cccc(OC2CCN(C)CC2)c1Cl [Example 11] | < 100 nM
C[C@@H](Oc1cc(-n2cnc3cc(-c4ccc(NC5CCN(C)CC5)nc4)ccc32)sc1C(N)=O)c1cccc(OC2CCN(C)CC2)c1Cl [Example 18] | < 100 nM
C[C@@H](Oc1cc(-n2cnc3cc(-c4cnn(C)c4)ccc32)sc1C(N)=O)c1cccc(OC2CCN(CCF)CC2)c1Cl [Example 29] | < 100 nM

For PLK1 (Homo sapiens, UniProt P53350), provide IC50 of C[C@@H](Oc1cc(-n2cnc3cc(OC(F)(F)F)ccc32)sc1C(N)=O)c1cccc(OC2CCNCC2)c1Cl [Example 61] please.
< 100 nM

For PLK1 (Homo sapiens, UniProt P53350), provide IC50 of Cc1cc(-c2ccc3c(c2)ncn3-c2cc(O[C@H](C)c3cccc(OC4CCN(C)CC4)c3Cl)c(C(N)=O)s2)ccn1 [Example 50] please.
< 100 nM

For PLK1 (Homo sapiens, UniProt P53350), provide IC50 of C[C@@H](Oc1cc(-n2cnc3ccc(Cl)cc32)sc1C(N)=O)c1cccc(OC2CCNCC2)c1Cl [Example 52] please.
< 100 nM

For PLK1 (Homo sapiens, UniProt P53350), provide IC50 of Cc1ccc(-c2ccc3c(c2)ncn3-c2cc(O[C@H](C)c3cccc(OC4CCNCC4)c3Cl)c(C(N)=O)s2)cn1 [Example 9] please.
< 100 nM

For PLK1 (Homo sapiens, UniProt P53350), provide IC50 of C[C@@H](Oc1cc(-n2cnc3cc(Cl)ccc32)sc1C(N)=O)c1ccc(F)c(OC2CCN(C)CC2)c1Cl [Example 32] please.
< 100 nM

For PLK1 (Homo sapiens, UniProt P53350), provide IC50 of CC(Oc1cc(-n2cnc3cc(-c4cnn(C)c4)ccc32)sc1C(N)=O)c1cccc(OC2CCNCC2)c1F (racemic) [Example 75] please.
< 100 nM

For PLK1 (Homo sapiens, UniProt P53350), provide IC50 of C[C@@H](Oc1cc(-n2cnc3cc(F)c(Cl)cc32)sc1C(N)=O)c1cccc(OC2CCNCC2)c1Cl [Example 69] please.
< 100 nM

For PLK1 (Homo sapiens, UniProt P53350), provide IC50 of C[C@@H](Oc1cc(-n2cnc3ccc(Cl)cc32)sc1C(N)=O)c1cccc(OC2CCN(C)CC2)c1Cl [Example 53] please.
< 100 nM

For PLK1 (Homo sapiens, UniProt P53350), provide IC50 of C[C@@H](Oc1cc(-n2cnc3cc(F)c(F)cc32)sc1C(N)=O)c1cccc(OC2CCNCC2)c1Cl [Example 65] please.
< 100 nM

For PLK1 (Homo sapiens, UniProt P53350), provide IC50 of C[C@@H](Oc1cc(-n2cnc3cc(OC(F)(F)F)ccc32)sc1C(N)=O)c1cccc(OC2CCN(C)CC2)c1Cl [Example 62] please.
< 100 nM

For PLK1 (Homo sapiens, UniProt P53350), provide IC50 of CC(Oc1cc(-n2cnc3cc(-c4cnn(C)c4)ccc32)sc1C(N)=O)c1cccc(OC2CCNCC2)c1 (racemic) [Example 73] please.
< 100 nM
